- TARGET_ENTITY: Tubulin
- ASSAY_NAME: Inhibition of Tubulin polymerization in human HeLa cells assessed as decrease in dynamic tyrosinated microtubules after 2 hrs by microplate reader analysis
pEC50: −log10 of the molar value.
ASSAY_METRIC: pEC50

Worked examples follow.
ENTRY_SMILES	pEC50
C=C(c1cc(OC)c(OC)c(OC)c1)c1csc2ccccc12	5.41
COc1cc(/C=C\c2csc3ccccc23)cc(OC)c1OC	5.61
COc1cc(/C=C\c2cc3ccccc3s2)cc(OC)c1OC	5.59
C=C(c1cc(OC)c(OC)c(OC)c1)c1cc2ccccc2s1	6.49
COc1ccc(/C=C\c2cc(OC)c(OC)c(OC)c2)s1	5.81

a: COc1cc(/C=C/c2cc3ccccc3s2)cc(OC)c1OC
b: COc1csc(/C=C\c2cc(OC)c(OC)c(OC)c2)c1
Lookup: // task: argmin of pEC50 over [ a , b ] Output the label that corresponds to your choice.
Found: a

Cited source for all entries: ChEMBL document CHEMBL3745612
